# ASSAYED SYSTEM: human TLR7 (Homo sapiens, UniProt Q9NYK1)
# Sequence (Q9NYK1 27-1049): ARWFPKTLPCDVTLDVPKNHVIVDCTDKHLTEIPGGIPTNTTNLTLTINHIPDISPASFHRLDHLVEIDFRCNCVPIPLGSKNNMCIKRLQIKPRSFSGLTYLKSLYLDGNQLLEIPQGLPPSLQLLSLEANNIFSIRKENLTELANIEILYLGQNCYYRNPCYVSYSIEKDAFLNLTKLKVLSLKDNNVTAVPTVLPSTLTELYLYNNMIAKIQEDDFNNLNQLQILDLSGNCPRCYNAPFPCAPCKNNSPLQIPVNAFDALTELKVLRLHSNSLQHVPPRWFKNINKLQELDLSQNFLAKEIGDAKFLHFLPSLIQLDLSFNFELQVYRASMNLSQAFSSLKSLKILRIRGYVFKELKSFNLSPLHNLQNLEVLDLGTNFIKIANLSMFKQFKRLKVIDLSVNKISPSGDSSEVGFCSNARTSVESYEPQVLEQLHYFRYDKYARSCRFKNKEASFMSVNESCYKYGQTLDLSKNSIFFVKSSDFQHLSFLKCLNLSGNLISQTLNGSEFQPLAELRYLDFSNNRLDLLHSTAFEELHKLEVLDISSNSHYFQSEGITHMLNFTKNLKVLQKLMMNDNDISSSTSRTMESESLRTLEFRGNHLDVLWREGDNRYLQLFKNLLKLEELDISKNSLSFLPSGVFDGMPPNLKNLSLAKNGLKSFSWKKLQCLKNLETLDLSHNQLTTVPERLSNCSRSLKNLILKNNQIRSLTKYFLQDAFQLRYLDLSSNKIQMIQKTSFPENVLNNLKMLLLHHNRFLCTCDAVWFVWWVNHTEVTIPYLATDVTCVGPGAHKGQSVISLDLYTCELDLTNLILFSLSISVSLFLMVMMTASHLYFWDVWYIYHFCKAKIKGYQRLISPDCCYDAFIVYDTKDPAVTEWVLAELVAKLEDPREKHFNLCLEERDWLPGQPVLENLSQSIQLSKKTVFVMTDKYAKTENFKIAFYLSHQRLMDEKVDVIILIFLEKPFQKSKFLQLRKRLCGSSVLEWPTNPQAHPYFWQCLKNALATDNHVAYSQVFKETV
# PROTOCOL: HEK293-Blue-hTLR-7 cells assay
# DETAILS: HEK293-Blue-hTLR7 cells, R848 stimulation, 20 hrs, SEAP reporter; read-out: HEK/hTLR7 IC50
# binning rule on IC50: low = under 20 nM, medium = from 20 nM up to 40 nM, high = 40 nM and over

Look over these answered cases.
[[record]]
compound = "C[C@@H]1CN(c2ccc(C#N)c3ncccc23)C[C@@H]2CC(c3ccc(C[C@@H]4CNCCO4)cc3)CCN21 (stereo in doubt)"
group_label = "low"

[[record]]
compound = "CO[C@@H]1CN(c2ccc([C@@H]3CCN4[C@@H](C3)CN(c3ccc(C#N)c5ncccc35)C[C@H]4C)cn2)C[C@@H]1N"
group_label = "medium"

[[record]]
compound = "C[C@@H]1CN(c2ccc(C#N)c3ncccc23)C[C@@H]2C[C@@H](Oc3cncc(N4CCNCC4)c3)CCN21"
group_label = "high"

[[record]]
compound = "C[C@@H]1CN(c2ccc(C#N)c3ncccc23)C[C@@H]2C[C@H](Nc3ccc([C@H]4CNCCO4)cc3)CCN21"
group_label = "low"

[[record]]
compound = "C[C@@H]1CN(c2ccc(C#N)c3ncccc23)C[C@@H]2C[C@H](c3ccc([C@@H]4CNCCO4)cc3)CCN21"
group_label = "low"

[[record]]
compound = "[2H]c1ccc2c(N3C[C@@H]4C[C@H](Nc5ccc(C[C@H]6CNCCO6)cc5)CCN4[C@H](C)C3)ccc(C#N)c2n1"
group_label = "high"

[[record]]
compound = "[2H]c1ccc2c(N3C[C@@H]4C[C@H](N5CCN(c6ccncc6)CC5)CCN4[C@H](C)C3)ccc(C#N)c2n1"
group_label = "low"

[[record]]
compound = "CO[C@@H]1CN(c2ccc([C@@H]3CCN4[C@@H](C3)CN(c3ccc(C#N)c5ncccc35)C[C@H]4C)cn2)C[C@H]1N"
group_label = "medium"

[[record]]
compound = "C[C@@H]1CN(c2ccc(C#N)c3ncccc23)C[C@@H]2C[C@@H](Oc3ccc(N4CCNCC4)cn3)CCN21"
group_label = "high"

[[record]]
compound = "CO[C@H]1CN(c2ccc([C@@H]3CCN4[C@@H](C3)CN(c3ccc(C#N)c5ncccc35)C[C@H]4C)cn2)C[C@H]1N"
group_label = "low"


Record `CO[C@H]1CN(c2ccc(O[C@H]3CCN4[C@@H](C3)CN(c3ccc(C#N)c5ncccc35)C[C@H]4C)cn2)C[C@H]1N` — which class?
high

Record `C[C@@H]1CN(c2ccc(C#N)c3ncccc23)C[C@@H]2C[C@H](N3CC(c4ccc(N5CCNCC5)cc4)C3)CCN21` — which class?
medium

----------
# ASSAYED SYSTEM: UniProt Q9NR96
# Sequence (Q9NR96 26-1032): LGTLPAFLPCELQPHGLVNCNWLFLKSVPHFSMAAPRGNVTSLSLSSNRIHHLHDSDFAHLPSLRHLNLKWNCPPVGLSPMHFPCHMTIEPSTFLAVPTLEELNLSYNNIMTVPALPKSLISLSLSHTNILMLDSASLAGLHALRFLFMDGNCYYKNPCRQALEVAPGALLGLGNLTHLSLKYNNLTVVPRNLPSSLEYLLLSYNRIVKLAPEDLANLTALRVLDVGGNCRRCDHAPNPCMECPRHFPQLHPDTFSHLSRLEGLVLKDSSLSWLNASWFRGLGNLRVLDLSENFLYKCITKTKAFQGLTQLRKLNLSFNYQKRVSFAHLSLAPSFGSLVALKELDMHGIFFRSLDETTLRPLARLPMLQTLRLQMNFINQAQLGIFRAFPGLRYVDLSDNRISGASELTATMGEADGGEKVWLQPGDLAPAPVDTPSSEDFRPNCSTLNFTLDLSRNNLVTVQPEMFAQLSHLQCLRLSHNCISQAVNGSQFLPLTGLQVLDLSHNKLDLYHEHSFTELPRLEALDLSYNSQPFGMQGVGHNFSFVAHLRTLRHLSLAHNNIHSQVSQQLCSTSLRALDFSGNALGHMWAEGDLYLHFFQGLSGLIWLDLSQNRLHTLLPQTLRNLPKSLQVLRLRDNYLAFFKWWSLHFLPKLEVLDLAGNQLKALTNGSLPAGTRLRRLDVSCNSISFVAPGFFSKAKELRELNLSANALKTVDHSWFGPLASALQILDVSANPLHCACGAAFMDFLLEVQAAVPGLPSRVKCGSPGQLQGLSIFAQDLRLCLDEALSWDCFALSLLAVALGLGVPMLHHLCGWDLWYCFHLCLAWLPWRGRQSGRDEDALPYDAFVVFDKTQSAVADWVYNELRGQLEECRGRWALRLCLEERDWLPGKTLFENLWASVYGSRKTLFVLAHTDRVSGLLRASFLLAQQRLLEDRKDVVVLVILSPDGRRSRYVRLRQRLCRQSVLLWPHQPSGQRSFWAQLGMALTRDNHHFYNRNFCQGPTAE
# PROTOCOL: HEK293-Blue-hTLR-9 cells assay
# DETAILS: HEK293-Blue-hTLR9 cells, ODN2006 stimulation, 20 hrs, SEAP reporter; read-out: HEK/hTLR9 IC50
pIC50: −log10 of the molar value.
Label not fulfilled if pIC50 falls below 7; label fulfilled in every other case.

Look over these answered cases.
[[record]]
compound = "[2H]c1ccc2c(N3C[C@@H]4C[C@@H](N5CC(c6ccc(N7C[C@@H](N)[C@H](OC)C7)cc6)C5)CCN4[C@H](C)C3)ccc(C#N)c2n1 [Example 36]"
group_label = "fulfilled"

[[record]]
compound = "C[C@@H]1CN(c2ccc(C#N)c3ncccc23)C[C@@H]2C[C@@H](Oc3cnc(N4CCNCC4)nc3)CCN21 [Example 18]"
group_label = "fulfilled"


Here is another compound to look at.
Reported pIC50 at or above 7? C[C@@H]1CN(c2ccc(C#N)c3ncccc23)C[C@@H]2C[C@H](c3ccc(N4CC(N)C4)nc3)CCN21 [Example 7]
not fulfilled
